Target: Cathepsin B (Rattus norvegicus, UniProt P00787)
Sequence (P00787 80-339): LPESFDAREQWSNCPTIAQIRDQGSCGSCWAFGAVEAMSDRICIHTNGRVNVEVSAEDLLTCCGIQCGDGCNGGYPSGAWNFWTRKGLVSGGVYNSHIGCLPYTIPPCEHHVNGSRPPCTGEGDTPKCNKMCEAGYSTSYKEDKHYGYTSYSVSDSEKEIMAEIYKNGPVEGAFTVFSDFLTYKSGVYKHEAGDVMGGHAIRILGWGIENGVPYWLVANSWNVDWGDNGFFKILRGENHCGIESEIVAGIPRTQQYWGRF
Assay: Inhibition of Cathepsin B, enzyme assay and kinetic measurements
Format: biochemical
Details: steady state, 200 μM [inhibitor]
Reported metric: inhibition at 200 µM (%)
Give just the numeric value; % need not be written.

# example entries with known answers
O=C(c1ccccn1)c1nsc2nc3ccccc3n12 : 58
O=C(O)c1nsc2nc3ccccc3n12 : 85
c1ccc2c(c1)nc1snc(CN3CCOCC3)n12 : 60

Attention now shifts to the item below.
Specify reported inhibition at 200 µM for the compound shown: CN1CCN(c2nsc3nc4ccccc4n23)CC1 68

###

Biological target: hog H^+ /K^+ ATPase (Sus scrofa)
Construct: Potassium stimulated ATP hydrolysis using hog gastric (GI) vesicles
Sequence (P19156 2-1034 limits assumed): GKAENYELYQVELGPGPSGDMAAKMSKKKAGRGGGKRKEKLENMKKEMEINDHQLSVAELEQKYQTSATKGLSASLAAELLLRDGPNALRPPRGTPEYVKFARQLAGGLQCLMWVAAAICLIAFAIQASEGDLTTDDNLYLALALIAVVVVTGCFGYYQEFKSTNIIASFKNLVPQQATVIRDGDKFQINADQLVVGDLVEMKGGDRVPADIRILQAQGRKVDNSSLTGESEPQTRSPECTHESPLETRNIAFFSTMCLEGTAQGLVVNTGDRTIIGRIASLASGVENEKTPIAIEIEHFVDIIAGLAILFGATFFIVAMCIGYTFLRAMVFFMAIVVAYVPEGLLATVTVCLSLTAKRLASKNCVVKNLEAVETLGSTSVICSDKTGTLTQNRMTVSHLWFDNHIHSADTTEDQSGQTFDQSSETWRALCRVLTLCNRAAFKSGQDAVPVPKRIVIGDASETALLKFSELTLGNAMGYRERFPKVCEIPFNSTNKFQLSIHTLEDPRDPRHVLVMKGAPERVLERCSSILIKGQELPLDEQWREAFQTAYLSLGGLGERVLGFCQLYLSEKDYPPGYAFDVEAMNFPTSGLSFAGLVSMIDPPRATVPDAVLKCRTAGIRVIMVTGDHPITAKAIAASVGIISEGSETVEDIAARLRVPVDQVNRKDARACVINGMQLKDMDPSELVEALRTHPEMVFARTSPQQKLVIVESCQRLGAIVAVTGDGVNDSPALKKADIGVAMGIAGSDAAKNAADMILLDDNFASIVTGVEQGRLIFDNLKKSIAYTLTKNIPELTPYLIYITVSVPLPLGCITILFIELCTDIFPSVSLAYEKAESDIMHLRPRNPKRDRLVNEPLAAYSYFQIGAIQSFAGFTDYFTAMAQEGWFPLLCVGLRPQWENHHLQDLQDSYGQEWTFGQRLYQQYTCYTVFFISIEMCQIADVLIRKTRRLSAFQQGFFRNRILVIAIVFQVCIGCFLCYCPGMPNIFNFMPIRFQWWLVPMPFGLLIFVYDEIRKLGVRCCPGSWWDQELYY
Sequence (P18434 whole entry partner): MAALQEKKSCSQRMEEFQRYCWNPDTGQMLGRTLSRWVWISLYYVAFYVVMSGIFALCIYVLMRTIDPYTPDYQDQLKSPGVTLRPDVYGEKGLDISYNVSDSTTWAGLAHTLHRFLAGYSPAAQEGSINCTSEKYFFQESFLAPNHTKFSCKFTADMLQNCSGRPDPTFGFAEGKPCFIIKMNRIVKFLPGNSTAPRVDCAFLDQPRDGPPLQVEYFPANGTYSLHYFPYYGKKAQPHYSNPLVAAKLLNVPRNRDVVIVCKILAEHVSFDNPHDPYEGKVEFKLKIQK
Test: Gastric ATPase enzyme inhibition assay
Conditions: hog gastric vesicles, K+ stimulated ATP hydrolysis
Here the recorded pEC50 is given for each entry.
Quick note: pEC50 means taking -log10 of the concentration in moles per liter.

c1ccc2c(c1)nc1snc(CN3CCOCC3)n12 : 6.70
CN1CCN(c2nsc3nc4ccccc4n23)CC1 : 5.70
c1ccc2c(c1)nc1snc(N3CCNCC3)n12 : 6.00

Now consider a different compound.
Give a short answer stating reported pEC50 for c1ccc2c(c1)nc1snc(NCCN3CCOCC3)n12 . 6.70
